system: Streptococcus pneumoniae; test: Mouse pneumonia model, bacterial pneumonia; format: in vivo, BALB/C mice; design: unit not given here; conditions: nasal drip, average values + standard deviation
Ends that are not written are not given here.
// reported Inhibitory effect on pulmonary infections: Bacterial pneumonia per item
# print the numeric value only

The examples below pair each entry with its known result.
PRCWRGEGGGGIAVVRRADRAPGGGGRGD [Polypeptide I]    34.83
PRCWCGEGGGGIVRRADRAAVPGGGGRGD (cysteine pairing not given here) [Polypeptide III]    47.29
PRCYRGEGGGGIVRRADRAAVPGGGGRGD [Polypeptide II]    41.25

Exercise: Look up Inhibitory effect on pulmonary infections: Bacterial pneumonia: PRCYCGEGGGGIVRRADRAAVPGGGGRGD (cysteine pairing not given here) [Polypeptide IV]
Solution: 43.69

###

tested on: Mycoplasma pneumoniae; assay: Mouse pneumonia model, mycoplasma pneumonia; type: in vivo, BALB/C mice; set-up: unit not given here; conditions: nasal drip, average values + standard deviation
Ends that are not written are not given here.
OBSERVED_PROPERTY: Inhibitory effect on pulmonary infections: Mycoplasma pneumonia
// return a plain number; no unit text

Example entries begin here.
PRCYRGEGGGGIVRRADRAAVPGGGGRGD [Polypeptide II]    45.69
PRCYCGEGGGGIVRRADRAAVPGGGGRGD (cysteine pairing not given here) [Polypeptide IV]    41.20
PRCWCGEGGGGIVRRADRAAVPGGGGRGD (cysteine pairing not given here) [Polypeptide III]    43.93

Now for another entry.
Exercise: // returns reported Inhibitory effect on pulmonary infections: Mycoplasma pneumonia for input PRCWRGEGGGGIAVVRRADRAPGGGGRGD [Polypeptide I]
Solution: 36.48
